- measurement target: RSV postfusion F (postF), F deltaFP (Respiratory Syncytial Virus)
- protocol details: BLI, IgG on anti-human IgG sensor, 100 nM antigen
readout: pKd
Please treat pKd as minus the base-10 logarithm of the molar concentration.

- binder: "ADI-41146 (antibody, V domains shown) VH: QVQLVQSGAEVKKPGESLKISCKGSGHSFATFWIGWVRQVPGNGLELMGIINLGDSDTKYSPSFQGQVTISADESIGTAYLQWSSLKASDTAMYYCARVSLPHYYYYMDVWGKGTTVTVSS VL: DIVMTQSPSSVSASVGDRVTITCRASQGISTWLAWYRQKPGKAPELLIYAASRLQSGVPSRFSGSGSGTDFTLTISSLQPEDFATYYCQQANSFLGAFGPGTKLEIK"
  pKd: 9.13
- binder: "ADI-41144 (antibody, V domains shown) VH: EVQLVQSGAEVKKPGGSVKVSCKASGYTFSEYYMHWVRQAPGQGPEWVGRINPKSGRTNYAQNFQGRVTMTRDRSISTVYMDLSRLRSDDTAVYYCARWEVMDYGSGIYYNQDHFDYWGQGTLVTVSS VL: DIRVTQSPSSLSASVGDRVTITCRASQDITNYLAWFQQKPGKAPKSLMYAASTLQSGVPSRFSGSGSGTDFTLTISSLQPEDFATYYCQQYKTYPITFGQGTRLEIK"
  pKd: 9.12

Query: Bench note: what pKd did ADI-41154 (antibody, V domains shown) VH: QVQLQQWGAGLSKPSETLSVTCAVYGGSLSGHYWSWFRQPPGKGLEWIGEIDHSGSTTYNPSLKSRVTISVDTSKNQFSLKLTSVTAADTAMYYCARATRYNYGYTFDYWGQGTLVTVSS VL: DIPLTQSPSSLSASVGDRVTITCRASQIISSYLNWYQQKPGKAPKLLIYAASTLQSGVPSRFSGSRSGTDFTLTISSLQPEDFASYYCQQSYIIPFTFGPGTKVEIK show?
Result: 8.87

Query: Bench note: what pKd did ADI-41184 (antibody, V domains shown) VH: EVQLLETGGGLVQPGGSLRLSCAASGFTFSSYDMNWVRQAPGKGLEWVSTISGSGGPTYYAGSVKGRFTISRDNSKNTLYLQMNSLRADDTAVYYCAKAQLYDTSGYYLYYFDYWGQGTLVTVSS VL: DIRMTQSPSSLSASVGDRVTITCRASQRITSYLNWYQQKPGKAPKLLIYAASSLQSGVPSRFSGSGSGTDFTLTISSLQPEDFATYFCQQSYSTSFTFGPGTKVDIK show?
Result: 9.27

Query: Bench note: what pKd did ADI-41183 (antibody, V domains shown) VH: QVQLQESGAGLVKPSETLSLTCGVYGESFSGHSWSWIRQPPGRGLEWIGEINQSGTTKYNPSLRSRVTISVDRSKNEFSLKVSSVTAADTAVYFCARYFRSFYTIGPDYYYMDVWGKGTTVTVSS VL: EIVLTQSPSSLSASVGDRVTITCRASQNINNYLNWYQQKPGKAPRLLIYAASSLQSGVPSRFTGSGSGTDFTLTIRSLQSEDFATYYCQHSYSSSLLTFGGGTKVDIK show?
Result: 9.00

Query: Bench note: what pKd did ADI-41164 (antibody, V domains shown) VH: QVQLVQSGGDLVQPGGSLRLSCAASGFTFSDYEVNWVRQAPGKGLEWLSYISSSGRIIHYADSVRGRFTISRDNAKNSLYLQMNSLRAEDTAVYYCARAAGQWLVTYYYYGMDVWGQGTTVTVSS VL: QSVMTQSPSTLSASVGDTVTITCRASQSIINRLAWYQQKPGKPPKLLIYKSSSSESGVPSKFSGSGSGTEFTLTINSLQPDDFATYYCQHYNSYLYTFGQGTKVEIK show?
Result: 9.02

Query: Bench note: what pKd did ADI-41197 (antibody, V domains shown) VH: QVQLVQSGAEVKKPGASVKVSCKASGYTFSGYYMHWVRQAPGQGLEWVGRINPKSGDTVYAQKFQGRVTMTRDTSISTAYMELSRLISDDTAKYYCARQEDHYYGSGNFYNSFDFWGQGTLVTVSS VL: ETTLTQSPSSLSASVGDRVTITCRASQSISSNLNWYQQKPGKAPKLLIYGASTLQSGVPSRFSGSGSGTDFTLTISSLQPEDLATYYCQQSYSNPGKTFGQGTKVDIK show?
Result: 9.27

Query: Bench note: what pKd did ADI-41214 (antibody, V domains shown) VH: EVQLVESGGGLVQPGGSLRLSCAASGFTFSSYWMSWVRQAPGKGLEWVATIKQDGSEKYSVDSVKGRFTISRDNPKKSLYLQMNSLRAEDTAVYYCARDYRVEYYHSSDKLKRYYYYGMDVWGQGTTVTVSS VL: DIRVTQSPSSLSASVGDRVTITCRASQSISTYLNWYQQKPGKAPKFLIYAASSLESGVPSRFSGSGSGTDFSLTISSLQPEDFATYYCQQSYSIPITFGQGTRLEIK show?
Result: 8.99

Query: Bench note: what pKd did ADI-41207 (antibody, V domains shown) VH: QVQLVQSGPALVKPTQTLTLTCTFSGFSLSTKGMCVSWIRQPPGKALEWLALIDWDDDKFYSTSLKTRLTISKDTSKNQVVLTMTNMDPVDTATYYCARTLYFYGSGSLSDYCFDYWGQGTPVTVSS VL: QPVLTQPRSVSGSPGQSVTISCTGTSRDVGNYNFVSWYQQHPGKAPKLIIYDVTKRPSGVPDRFSGSKSGNTASLTISGLQAEDEADYYCCSYAGTYTWVFGGGTKVTVL show?
Result: 9.36

Query: Bench note: what pKd did ADI-41156 (antibody, V domains shown) VH: QVQLVQSGGGLVQPGGSLRLSCVASGFIFSSYEMNWVRQAPGKGLEWVSYISSSGSTIYYADSVKGRFTISRDNAKNSLYLQMNSLGAEDTAVYYCARAILYFDYWGQGTLVTVSS VL: GIRLTQSPSSLSASVGDRVTITCRASQSITNYINWYQQKPGKAPKLLIYAISRLQSGVPSRFSGSGSGTDFTLTISSLQPEDFATYYCQQSYSTMYTFGQGTKVEIK show?
Result: 8.77

From: patent US20260258115A1
